These entries and their values trace back to paper PMC7168151.

Form field: MBC MRSA (one value per entry).
Tested on: methicillin-resistant Staphylococcus aureus (MRSA, NCTC 12493)
Format: cell-based
Where no end group is shown, it is not given here.

# Substance, Target, MBC MRSA
records = [
    ("GFSSLFKAGAKYLKKQVGKAGAQQL-NH2 [[K^14]BR2GK(1-25)a]", "methicillin-resistant Staphylococcus aureus (MRSA, NCTC 12493)", "128 µM"),
    ("GFSSLFKAGAKYLAKQVGKAGAQQL-NH2 [[A^14]BR2GK(1-25)a]", "methicillin-resistant Staphylococcus aureus (MRSA, NCTC 12493)", "64 µM"),
    ("GFSSLFKAGAKYLLKQVGKAGAQQL-NH2 [BR2GK(1-25)a]", "methicillin-resistant Staphylococcus aureus (MRSA, NCTC 12493)", "16 µM"),
    ("GFSSLFKAGAKYLPKQVGKAGAQQL-NH2 [[P^14]BR2GK(1-25)a]", "methicillin-resistant Staphylococcus aureus (MRSA, NCTC 12493)", "> 512 µM"),
]

Proceed to the following item.
Task item: Lab request: please report MBC MRSA under test system methicillin-resistant Staphylococcus aureus (MRSA, NCTC 12493) for GFSSLFKAGAKYLRKQVGKAGAQQL-NH2 [[R^14]BR2GK(1-25)a]
Reply: 128 µM
